# testTarget: D(1A) dopamine receptor (Rattus norvegicus, UniProt P18901)
# Sequence (P18901 whole entry): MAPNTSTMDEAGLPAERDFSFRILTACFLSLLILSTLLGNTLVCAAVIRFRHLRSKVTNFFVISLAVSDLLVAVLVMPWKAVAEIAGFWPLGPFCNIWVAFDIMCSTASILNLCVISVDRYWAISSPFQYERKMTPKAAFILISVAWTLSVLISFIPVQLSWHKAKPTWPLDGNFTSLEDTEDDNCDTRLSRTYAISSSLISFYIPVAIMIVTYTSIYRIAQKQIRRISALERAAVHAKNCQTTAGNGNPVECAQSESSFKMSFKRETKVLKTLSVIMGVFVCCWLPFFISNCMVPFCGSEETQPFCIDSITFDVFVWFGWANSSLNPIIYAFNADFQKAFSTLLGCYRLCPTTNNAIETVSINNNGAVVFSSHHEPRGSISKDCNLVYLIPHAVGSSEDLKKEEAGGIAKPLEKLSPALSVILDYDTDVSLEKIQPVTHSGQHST
# assay: In vitro binding affinity towards dDopamine receptor D1 by displacing [125I]FISCH radioligand in rat striatal homogenate
quantityName: Ki

INSERT INTO results (smilesstring, testtarget, result) VALUES
  ('O=C(c1ccc(F)cc1)C1CCN(CCn2c(=O)[nH]c3ccccc3c2=O)CC1', 'D(1A) dopamine receptor (Rattus norvegicus, UniProt P18901)', '> 3 µM');

---

# testTarget: D(1A) dopamine receptor (Rattus norvegicus, UniProt P18901)
# assay: In vitro binding affinity to the rat striatal homogenate.
pKd: −log10 of the molar value.
quantityName: pKd

INSERT INTO results (smilesstring, result) VALUES
  ('CN1CCc2ccc(O)cc2[C@@H](c2ccccc2)C1', 6.71);
